- tested-target: T1, human CD3 on CD3+ Jurkat cells (human, UniProt P07766 23-207)
- T1 construct: whole, on cells; Native CD3 complex on cells; the other CD3 chains are not specified for this assay; also called Human CD3+ Jurkat
- T1 sequence (P07766 23-207): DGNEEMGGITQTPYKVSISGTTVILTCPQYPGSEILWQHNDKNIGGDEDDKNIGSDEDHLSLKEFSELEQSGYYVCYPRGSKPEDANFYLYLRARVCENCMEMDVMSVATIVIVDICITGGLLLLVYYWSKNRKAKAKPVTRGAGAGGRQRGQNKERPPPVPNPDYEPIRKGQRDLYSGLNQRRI
- protocol-notes: flow cytometry, 100 nM IgG on CD3+ Jurkat cells, pH 6.0
measurement-type: MFI pH 6.0 (MFI)
A number alone suffices; assume MFI.

Here is how some binders turned out for MFI pH 6.0.
binder	unit-annotation	MFI pH 6.0
SAD10318_P01_G03 (ADI-48590) (antibody, V domains shown, IgG; also called Ab91) VH: QVQLVQSGAEVKKPGASVKVSCKASGFNIKDYYMHWVRQAPGQRLEWMGWIDLENANTIYDAKFQGRVTITRDTSASTAYMELSSLRSEDTAVYYCAHDAYGHYFYDVWGQGTLVTVSS VL: DIVMTQSPDSLAVSLGERATINCKSSQSLLNAHTGHNYLAWYQQKPGQPPKLLIYWASTRESGVPDRFSGSGSGTDFTLTISSLQAEDVAVYYCKQSYHHRTFGGGTKVEIK	MFI	1950
SAD10318_P03_A09 (ADI-48608) (antibody, V domains shown, IgG; also called Ab203) VH: QVQLVQSGAEVKKPGASVKVSCKASGFNIKDYYMHWVRQAPGQRLEWMGWIDLENANTIYDAKFQGRVTITRDTSASTAYMELSSLRSEDTAVYYCARDHYGRYFYDHWGQGTLVTVSS VL: DIVMTQSPDSLAVSLGERATINCKSSQSLLNARTGHNHLAWYQQKPGQPPKLLIYWASTRESGVPDRFSGSGSGTDFTLTISSLQAEDVAVYYCKQSYHHRTFGGGTKVEIK	MFI	203

Now, please, on to the next binder.
Noted for SAD10319_P01_C01 (ADI-48621) (antibody, V domains shown, IgG; also called Ab230) VH: QVQLVQSGAEVKKPGASVKVSCKASGYTFTDYDMHWVRQAPGQRLEWMGWIDAGTGLTKYSQKFQGRVTITRDTSASTAYMELSSLRSEDTAVYYCARDHYGHYFYDVWGQGTLVTVSS VL: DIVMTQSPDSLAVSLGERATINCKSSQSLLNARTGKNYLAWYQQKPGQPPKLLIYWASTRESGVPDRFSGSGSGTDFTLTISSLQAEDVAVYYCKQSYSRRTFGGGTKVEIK : its MFI pH 6.0 reads 731
